# Measurement Protocol: Acute Oral Toxicity in Mice (Laboratory Strain)
# Assay Conditions: mouse, in vivo, aqueous suspension, mg/kg animal body weight, observed until no deaths for at least three days
LD50 for assorted compounds
Please respond with the number in mg/kg and leave the unit unwritten.

Completed entries (count: 4):
{"columns": ["Compound", "Observed"],
 "data": [
  ["CC(C)(CO)C1CCN(CC#Cc2cc(C(F)(F)F)cc(C(F)(F)F)c2)CC1.O=[N+]([O-])O [1 (as nitrate)]", 72],
  ["COCC(C)(C)C1CCN(CC#Cc2cc(C(F)(F)F)cc(C(F)(F)F)c2)CC1.Cl [2 (as hydrochloride)]", 68],
  ["CC(=O)OCC(C)(C)C1CCN(CC#Cc2cc(C(F)(F)F)cc(C(F)(F)F)c2)CC1.Cl [3 (as hydrochloride)]", 68],
  ["CC(C)(CO)C1CCN(CC#Cc2cc(C(F)(F)F)cc(C(F)(F)F)c2)CC1.NS(=O)(=O)O [1 (as sulphamate)]", 72]
]}

# next compound below
Exam item: Entry under review: CC(C)(C=O)C1CCN(CC#Cc2cc(C(F)(F)F)cc(C(F)(F)F)c2)CC1.Cl [4 (as hydrochloride)] . Reported LD50?
Marked response: 68
